The reported numbers originate from patent US20260166139A1.

Kindly supply the reported kon values for the records listed here.
# Experimental system: T1, CTLA4 antigen (NCBI Gene ID: 1493) obtained by TEV protease cleavage of CTLA4-mFc (Homo sapiens (Human), UniProt P16410 37-161)
# T1 construct: also called the antigen CTLA4
# T1 sequence: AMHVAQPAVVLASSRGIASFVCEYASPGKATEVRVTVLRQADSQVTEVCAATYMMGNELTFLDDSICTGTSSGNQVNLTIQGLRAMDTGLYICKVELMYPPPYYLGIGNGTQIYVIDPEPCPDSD
# Test description: BLI (Fortebio), antibody on AR2G sensor, CTLA4 in solution
Give bare numbers, in M⁻¹ s⁻¹.

Take a look at these entries with their results.
- Binder: "humanized antibody 8D2H2L2 (antibody, V domains shown, also called 8D2H2L2(20150327); 8D2H2L2(20140422)) VH: EVQLVESGGGLVQPGGSMRLSCAASGFTFSDNWMNWVRQAPGKGLEWLAQIRNKPYNYETYYSASVKGRFTISRDDSKNSVYLQMNSLKTEDTGVYYCTAQFAYWGQGTLVTVSS VL: DIQMTQSPSSLSASVGDRVTITCRTSENIYGGLNWYQRKPGKSPKLLIYGATNLASGVSSRFSGSGSGTDYTLTISSLQPEDVATYYCQNVLRSPFTFGSGTKLEIK"
  Reading: 407000
- Binder: "humanized antibody 8D2H3L3 (antibody, V domains shown) VH: EVQLVESGGGLVQPGGSLRLSCAASGFTFSDNWMNWVRQAPGKGLEWVAQIRNKPYNYETEYAASVKGRFTISRDDSKNSAYLQMNSLKTEDTAVYYCTAQFAYWGQGTLVTVSS VL: DIQMTQSPSSLSASVGDRVTITCRASENIYGGLNWYQQKPGKAPKLLIYGATSLASGVPSRFSGSGSGTDYTLTISSLQPEDFATYYCQNVLRSPFTFGSGTKLEIK"
  Reading: 312000
- Binder: "humanized antibody 8D2H2L17 (antibody, V domains shown) VH: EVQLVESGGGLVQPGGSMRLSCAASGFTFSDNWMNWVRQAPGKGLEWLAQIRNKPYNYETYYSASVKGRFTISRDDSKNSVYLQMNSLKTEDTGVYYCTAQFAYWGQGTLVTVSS VL: DIQMTQSPSSLSASVGDRVTITCRTSENIYGGLNWYQRKPGKSPKLLIYGATNLASGVSSRFSGSGSGTDYTLTISSLQPEDVATYYCQNVLSSRPGFGSGTKLEIK"
  Reading: 459000
- Binder: "humanized antibody 8D2H2L15 (antibody, V domains shown) VH: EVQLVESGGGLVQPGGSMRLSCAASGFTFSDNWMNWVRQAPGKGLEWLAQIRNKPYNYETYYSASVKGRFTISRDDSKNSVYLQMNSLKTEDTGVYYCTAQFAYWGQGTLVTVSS VL: DIQMTQSPSSLSASVGDRVTITCRTSENIYGGLNWYQRKPGKSPKLLIYGATNLASGVSSRFSGSGSGTDYTLTISSLQPEDVATYYCQNVLSRHPGFGSGTKLEIK"
  Reading: 454000
- Binder: "monoclonal antibody 8D2 (antibody, V domains shown, Murine antibody purified from hybridoma supernatant; also called mAb 8D2; antibody secreted by the CTLA4-8D2 hybridoma cell line LT001) VH: EVKLDETGGGLVQPGRPMKLSCVASGFTFSDNWMNWVRQSPEKGLEWLAQIRNKPYNYETYYSDSVKGRFTISRDDSKSSVYLQMNNLRGEDMGIYYCTAQFAYWGQGTLVTVSA VL: DIQMTQSPASLSASVGETVTITCGTSENIYGGLNWYQRKQGKSPQLLIFGATNLADGMSSRFSGSGSGRQYSLKISSLHPDDVATYYCQNVLRSPFTFGSGTKLEI"
  Reading: 142000

Measured kon, humanized antibody 8D2H1L1 (antibody, V domains shown) VH: EVQLVESGGGLVQPGGSMRLSCAASGFTFSDNWMNWVRQAPGKGLEWLAQIRNKPYNYETYYSDSVKGRFTISRDDSKNSVYLQMNSLKTEDTGVYYCTAQFAYWGQGTLVTVSS VL: DIQMTQSPSSLSASVGDRVTITCRTSENIYGGLNWYQRKQGKSPKLLIYGATNLASGMSSRFSGSGSGTDYTLKISSLHPDDVATYYCQNVLRSPFTFGSGTKLEIK : 340000
